protocolNotes: amyloid nucleation score (Sup35N fusion, yeast selection) (log enrichment); library NNK3; higher = more nucleation; inactive = no reads after selection;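 note: zero at mode of non-aggregating sequences after 7 days selection at 30°C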

substance: FYSWCR
amyloid nucleation score: inactive

substance: KISLISTNCLYMVFPYRYSR
amyloid nucleation score: 2.13

substance: GRWGGDYFCVGNFMG
amyloid nucleation score: inactive

substance: RIINCDKLSQTTALYIKTFM
amyloid nucleation score: inactive

substance: LWPIGIFKKCYVDRICYYCV
amyloid nucleation score: inactive

substance: RGAVLLKNWL
amyloid nucleation score: inactive

substance: YFCLQNFRVFLGRYMIHNYL
amyloid nucleation score: inactive

substance: IVLWVFVLTITLN
amyloid nucleation score: inactive

substance: FAHEVLYSANT
amyloid nucleation score: inactive

Recorded values, source the supplement of paper PMC12042874.
